Numbers sourced from patent US4103011A.

measurement_description: Plasma level in mice
Format: in vivo, male mice (ddY)
run_parameters: mouse, plasma; 25 mg/kg, im, single dose; 0.25 hour; read-out: Average plasma conc.
Where a name gives a salt, the structure may show the parent alone.
property_name: concentration at 0.25 h (ng/mL)
Expressed in ng/mL, but write only the number.

Give the measured concentration at 0.25 h of CC1(C)S[C@@H]2[C@H](NC(=O)[C@H](NC(=O)c3c[nH]c4nc(N5CCN(C=O)CC5)ncc4c3=O)c3ccc(O)cc3)C(=O)N2[C@H]1C(=O)O [Compound 1, sodium salt] .
27400

----------
Reported MIC is given for each of the following compounds.
Tested on: Streptococcus faecalis P-2473
measurement_description: In vitro antibacterial activity (MIC)
Format: cell-based
run_parameters: Enterococcus faecalis, P2473, read-out: minimum inhibitory concentration (MIC)
Where a name gives a salt, the structure may show the parent alone.
Expressed in µg/mL, but write only the number.

Take a look at these entries with their results.
CC1(C)S[C@@H]2[C@H](NC(=O)[C@H](NC(=O)c3c[nH]c4nc(N5CCN(C=O)CC5)ncc4c3=O)c3ccc(O)cc3)C(=O)N2[C@H]1C(=O)O [Compound 1, sodium salt] :: 3.13
CCN1CCN(C(=O)N[C@@H](C(=O)N[C@@H]2C(=O)N3[C@@H]2SC(C)(C)[C@@H]3C(=O)O)c2ccccc2)C(=O)C1=O [Compound H, sodium salt] :: 3.13
CN(C)c1ncc2c(=O)c(C(=O)N[C@@H](C(=O)N[C@@H]3C(=O)N4[C@@H]3SC(C)(C)[C@@H]4C(=O)O)c3ccc(O)cc3)c[nH]c2n1 :: 3.13

Give the measured MIC of CC1(C)S[C@@H]2[C@H](NC(=O)[C@H](NC(=O)c3c[nH]c4nc(N5CCN(C=O)CC5)ncc4c3=O)c3ccccc3)C(=O)N2[C@H]1C(=O)O [Compound B, sodium salt] .
6.25

Give the measured MIC of CN1CCN(c2ncc3c(=O)c(C(=O)N[C@@H](C(=O)N[C@@H]4C(=O)N5[C@@H]4SC(C)(C)[C@@H]5C(=O)O)c4ccc(O)cc4)c[nH]c3n2)CC1 [Compound A, sodium salt] .
6.25

----------
Tested on: Serratia mercescens IFO 3736
measurement_description: In vitro antibacterial activity (MIC)
Format: cell-based
run_parameters: Serratia, IFO3736, read-out: minimum inhibitory concentration (MIC)
Counter-ions that a name gives are not always drawn.
Reported MIC is given for each of the following molecules.
Expressed in µg/mL, but write only the number.

Take a look at these entries with their results.
CN(C)c1ncc2c(=O)c(C(=O)N[C@@H](C(=O)N[C@@H]3C(=O)N4[C@@H]3SC(C)(C)[C@@H]4C(=O)O)c3ccc(O)cc3)c[nH]c2n1 :: 6.25
CCN1CCN(C(=O)N[C@@H](C(=O)N[C@@H]2C(=O)N3[C@@H]2SC(C)(C)[C@@H]3C(=O)O)c2ccccc2)C(=O)C1=O [Compound H, sodium salt] :: 0.78
CCn1cc(C(=O)O)c(=O)c2cnc(N3CCNCC3)nc21 :: 6.25
CC1(C)S[C@@H]2[C@H](NC(=O)[C@H](NC(=O)c3c[nH]c4nc(N5CCN(C=O)CC5)ncc4c3=O)c3ccccc3)C(=O)N2[C@H]1C(=O)O [Compound B, sodium salt] :: 12.5

Recall the recorded MIC for CC1(C)S[C@@H]2[C@H](NC(=O)[C@H](N)c3ccc(O)cc3)C(=O)N2[C@H]1C(=O)O [Compound M, sodium salt] with Serratia mercescens IFO 3736 and state it.
50

----------
Reported LD50 at 168 h is given for each of the following compounds.
measurement_description: in vivo
run_parameters: mouse, sc
Where a name gives a salt, the structure may show the parent alone.
Expressed in mg/kg, but write only the number.

CN1CCN(c2ncc3c(=O)c(C(=O)N[C@@H](C(=O)N[C@@H]4C(=O)N5[C@@H]4SC(C)(C)[C@@H]5C(=O)O)c4ccc(O)cc4)c[nH]c3n2)CC1 [Compound A, sodium salt] :: 1500

Give the measured LD50 at 168 h of CNc1ncc2c(=O)c(C(=O)N[C@@H](C(=O)N[C@@H]3C(=O)N4[C@@H]3SC(C)(C)[C@@H]4C(=O)O)c3ccc(O)cc3)c[nH]c2n1 [Compound F, sodium salt] .
1410

----------
So I've got MIC readings for Shigella flexneri 4a P-330, take a look.
Where a name gives a salt, the structure may show the parent alone.
Expressed in µg/mL, but write only the number.

Take a look at these entries with their results.
CC1(C)S[C@@H]2[C@H](NC(=O)[C@H](NC(=O)c3c[nH]c4nc(N5CCN(C=O)CC5)ncc4c3=O)c3ccccc3)C(=O)N2[C@H]1C(=O)O [Compound B, sodium salt] :: 6.25
CN(C)c1ncc2c(=O)c(C(=O)N[C@@H](C(=O)N[C@@H]3C(=O)N4[C@@H]3SC(C)(C)[C@@H]4C(=O)O)c3ccc(O)cc3)c[nH]c2n1 :: 6.25
CC(=O)N1CCN(c2ncc3c(=O)c(C(=O)N[C@@H](C(=O)N[C@@H]4C(=O)N5[C@@H]4SC(C)(C)[C@@H]5C(=O)O)c4ccc(O)cc4)c[nH]c3n2)CC1 [Compound 2, sodium salt] :: 3.13
CC1(C)S[C@@H]2[C@H](NC(=O)[C@H](NC(=O)c3c[nH]c4nc(N5CCN(C=O)CC5)ncc4c3=O)c3ccc(O)cc3)C(=O)N2[C@H]1C(=O)O [Compound 1, sodium salt] :: 3.13

Recall the recorded MIC for CCN1CCN(C(=O)N[C@@H](C(=O)N[C@@H]2C(=O)N3[C@@H]2SC(C)(C)[C@@H]3C(=O)O)c2ccccc2)C(=O)C1=O [Compound H, sodium salt] with Shigella flexneri 4a P-330 and state it.
3.13

----------
Test system: Salmonella typhimurium S-9
measurement_description: In vitro antibacterial activity (MIC)
Format: cell-based
run_parameters: Salmonella enterica; Salmonella typhimurium S-9; read-out: minimum inhibitory concentration (MIC)
Excerpt: In vitro antibacterial activity against 20 strains of bacteria The numerals in the table show minimum inhibitory concentrations (MIC)
Counter-ions that a name gives are not always drawn.
Reported MIC is given for each of the following molecules.

Take a look at these entries with their results.
CC1(C)S[C@@H]2[C@H](NC(=O)[C@H](NC(=O)c3c[nH]c4nc(N5CCN(C=O)CC5)ncc4c3=O)c3ccccc3)C(=O)N2[C@H]1C(=O)O [Compound B, sodium salt] :: 1.56 µg/mL
CNc1ncc2c(=O)c(C(=O)N[C@@H](C(=O)N[C@@H]3C(=O)N4[C@@H]3SC(C)(C)[C@@H]4C(=O)O)c3ccc(O)cc3)c[nH]c2n1 [Compound F, sodium salt] :: 1.56 µg/mL
CCN1CCN(C(=O)N[C@@H](C(=O)N[C@@H]2C(=O)N3[C@@H]2SC(C)(C)[C@@H]3C(=O)O)c2ccccc2)C(=O)C1=O [Compound H, sodium salt] :: 0.39 µg/mL

Give the measured MIC of `CC(=O)N1CCN(c2ncc3c(=O)c(C(=O)O)c[nH]c3n2)CC1` .
> 50 µg/mL

Give the measured MIC of `CN(C)c1ncc2c(=O)c(C(=O)N[C@@H](C(=O)N[C@@H]3C(=O)N4[C@@H]3SC(C)(C)[C@@H]4C(=O)O)c3ccc(O)cc3)c[nH]c2n1` .
1.56 µg/mL

----------
measurement_description: Urinary excretion in mice
Type: in vivo, male mice (ddY)
run_parameters: mouse, urine, im, 25 mg/kg, im, single dose; 6-24 hour; read-out: r: urinary recovery
Structures can show the parent of a compound that is named as a salt.
property_name: dose excreted at 24 h
The answer consists of two parts: a number and, after it, its unit.

Give the measured dose excreted at 24 h of CC1(C)S[C@@H]2[C@H](NC(=O)[C@H](NC(=O)c3c[nH]c4nc(N5CCN(C=O)CC5)ncc4c3=O)c3ccc(O)cc3)C(=O)N2[C@H]1C(=O)O [Compound 1, sodium salt] .
1.9%

----------
Reported minimum inhibitory concentration (MIC) is given for each of the following compounds.
Test system: Escherichia coli P-140a
measurement_description: In vitro antibacterial activity (MIC)
Format: cell-based
Counter-ions that a name gives are not always drawn.

Take a look at these entries with their results.
O=CN1CCN(c2ncc3c(=O)c(C(=O)O)c[nH]c3n2)CC1 :: > 200 µg/mL
CC(=O)N1CCN(c2ncc3c(=O)c(C(=O)O)c[nH]c3n2)CC1 :: > 200 µg/mL

Give the measured minimum inhibitory concentration (MIC) of CC1(C)S[C@@H]2[C@H](NC(=O)[C@H](N)c3ccc(O)cc3)C(=O)N2[C@H]1C(=O)O [Compound M, sodium salt] .
> 200 µg/mL

----------
Test system: Staphylococcus aureus No. 50774
measurement_description: In vivo efficacy against systemic infection
Design: species or system male mice (ddY)
run_parameters: NO.50774, in Mus musculus, 336 h, sc, twice, about 5 minutes and 6 hours after infection, read-out: ED50 (median effective dose)
Structures can show the parent of a compound that is named as a salt.
property_name: ED50

CC1(C)S[C@@H]2[C@H](NC(=O)[C@H](NC(=O)c3c[nH]c4nc(N)ncc4c3=O)c3ccc(O)cc3)C(=O)N2[C@H]1C(=O)O [Compound G, sodium salt] :: ~0.8 mg/kg

Give the measured ED50 of CNc1ncc2c(=O)c(C(=O)N[C@@H](C(=O)N[C@@H]3C(=O)N4[C@@H]3SC(C)(C)[C@@H]4C(=O)O)c3ccc(O)cc3)c[nH]c2n1 [Compound F, sodium salt] .
~0.7 mg/kg

Give the measured ED50 of CN(C)c1ncc2c(=O)c(C(=O)N[C@@H](C(=O)N[C@@H]3C(=O)N4[C@@H]3SC(C)(C)[C@@H]4C(=O)O)c3ccc(O)cc3)c[nH]c2n1 [Compound E] .
~10 mg/kg
